- Tested on: SR leukemia
- Assay: NCI tumour cell line growth inhibition, 48 h; in the data active means GI50 below about 0.43 µM; inactive means the rest
Where a SMILES comes first, the peptide text is derived from it. The star is where a group is joined. Boc = CC(C)(C)OC(=O)*
Classes used: 1 = active, 0 = inactive

Molecule	Target Under Test	Assigned Category
CN(C)C(=S)Sc1ccc([N+](=O)[O-])cc1[N+](=O)[O-]	SR leukemia	1
COC(=O)C(C)NC(=O)C(CCSC)NC(=O)C(Cc1ccccc1)NC(=O)OC(C)(C)C (stereo not drawn) (Boc-Phe-Met-Ala-OMe; configuration not given here)	SR leukemia	0
NCCCn1c2c(c3ccc([N+](=O)[O-])cc3c1=O)C(=O)c1ccccc1-2	SR leukemia	1
C[C@@]12CCC[C@@](C)(C(=O)O)C1CC[C@]13CC(=O)[C@](CO)(C1)[C@@H](O)CC32 (some centres undefined)	SR leukemia	0
